src = patent EP4553077A1

Molecular target: hERG (Homo sapiens, UniProt Q12809)
Sequence (Q12809 whole entry): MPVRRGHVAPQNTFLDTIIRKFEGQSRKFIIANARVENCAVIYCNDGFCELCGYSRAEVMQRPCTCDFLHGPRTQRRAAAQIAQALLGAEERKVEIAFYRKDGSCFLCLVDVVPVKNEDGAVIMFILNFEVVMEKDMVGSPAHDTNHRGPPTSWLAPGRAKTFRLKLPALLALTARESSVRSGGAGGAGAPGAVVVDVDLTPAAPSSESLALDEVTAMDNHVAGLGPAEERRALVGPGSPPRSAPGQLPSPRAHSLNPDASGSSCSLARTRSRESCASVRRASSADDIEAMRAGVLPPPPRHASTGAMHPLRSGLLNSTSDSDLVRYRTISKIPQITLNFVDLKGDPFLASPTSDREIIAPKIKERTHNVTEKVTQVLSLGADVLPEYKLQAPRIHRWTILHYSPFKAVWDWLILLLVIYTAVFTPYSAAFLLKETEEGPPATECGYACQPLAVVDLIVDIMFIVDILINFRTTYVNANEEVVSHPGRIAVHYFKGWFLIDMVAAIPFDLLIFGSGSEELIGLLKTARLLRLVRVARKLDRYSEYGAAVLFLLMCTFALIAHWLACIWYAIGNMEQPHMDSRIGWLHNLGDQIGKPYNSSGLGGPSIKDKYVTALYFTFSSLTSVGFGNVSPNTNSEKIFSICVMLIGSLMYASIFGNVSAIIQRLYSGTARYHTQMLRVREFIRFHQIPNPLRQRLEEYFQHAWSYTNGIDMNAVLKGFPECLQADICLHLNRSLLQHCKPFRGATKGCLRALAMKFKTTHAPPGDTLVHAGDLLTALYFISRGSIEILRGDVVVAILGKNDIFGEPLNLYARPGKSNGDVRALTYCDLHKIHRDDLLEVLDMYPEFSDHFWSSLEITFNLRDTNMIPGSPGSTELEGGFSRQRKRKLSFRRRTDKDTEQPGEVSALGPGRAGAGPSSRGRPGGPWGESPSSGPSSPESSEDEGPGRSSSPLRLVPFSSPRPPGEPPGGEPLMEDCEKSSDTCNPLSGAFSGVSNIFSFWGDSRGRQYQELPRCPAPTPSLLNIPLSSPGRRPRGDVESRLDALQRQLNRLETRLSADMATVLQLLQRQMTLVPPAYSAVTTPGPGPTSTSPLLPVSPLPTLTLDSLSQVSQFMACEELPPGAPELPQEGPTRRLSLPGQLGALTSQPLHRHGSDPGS
Test: Manual patch clamp, hERG channel current in HEK-293 cells
Settings: human, hek-293 cells
measurement label: inhibition at 1 µM (%)
Expressed in %, but write only the number.

Lookup: Quick check: inhibition at 1 µM of C=C(C)C(=O)Nc1ccc(-c2c(-c3ccc(N=S4(=O)CCCC4)cc3)c3c(N)ncnc3n2C)c(F)c1 [Compound 24] ?
Found: 7.73

###

Target: hERG (Homo sapiens, UniProt Q12809)
Experiment: Manual patch clamp, hERG channel current in HEK-293 cells
Settings: human, hek-293 cells
measurement label: inhibition at 30 µM (%)
Kindly provide the numeric value in % only, without the unit symbol.

Lookup: Any idea what inhibition at 30 µM was measured for C=C(C)C(=O)Nc1ccc(-c2c(-c3ccc(N=S4(=O)CCCC4)cc3)c3c(N)ncnc3n2C)c(F)c1 [Compound 24] ?
Found: 14.2

###

Biological target: Ba/F3-TEL-FGFR2 (Homo sapiens, UniProt P21802+P41212)
Sequence (P21802 481-770 limits assumed, one chain of several): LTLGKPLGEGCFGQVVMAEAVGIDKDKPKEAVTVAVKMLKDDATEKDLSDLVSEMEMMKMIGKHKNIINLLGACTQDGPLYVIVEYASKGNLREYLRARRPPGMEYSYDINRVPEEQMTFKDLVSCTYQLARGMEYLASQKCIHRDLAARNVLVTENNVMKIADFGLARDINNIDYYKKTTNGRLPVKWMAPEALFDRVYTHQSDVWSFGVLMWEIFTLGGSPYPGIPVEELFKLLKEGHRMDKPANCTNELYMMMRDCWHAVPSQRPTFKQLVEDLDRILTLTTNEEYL
Assay: Cell viability (proliferation inhibition) of Ba/F3 cells, CellTiter Glo
Settings: read-out: Ba/F3 cell FGFR2 (IC50 nM), 72 h
measurement label: IC50 (nM)
# number only, unit nM dropped from output

// known answers, use as guide
Lookup: Using the record for C=C(C)C(=O)Nc1ccc(-c2c(-c3ccc(N=S(=O)(N(C)C)C(F)(F)F)cc3)c3c(N)ncnc3n2C)c(F)c1 (stereo not shown) , report its IC50.
Found: 0.4

Lookup: # repeat for C=C(C)C(=O)Nc1ccc(-c2c(-c3ccc(N=S(=O)(N(C)CC)C(F)(F)F)cc3)c3c(N)ncnc3n2C)cc1 (stereo not shown)
Found: 2.8

Lookup: And for C=C(C)C(=O)Nc1ccc(-c2c(-c3ccc(N=S4(=O)CCC(F)(F)CC4)cc3)c3c(N)ncnc3n2C)c(F)c1 ?
Found: 9.3

New cases:
Lookup: # query: IC50 of entry C=CC(=O)Nc1ccc(-c2c(-c3ccc(N=S4(=O)CCCC4)cc3)c3c(N)ncnc3n2C)c(F)c1
Found: 2

Lookup: One more compound: C=C(C)C(=O)Nc1ccc(-c2c(-c3ccc(N=S4(=O)CCCCC4)c(OC)c3)c3c(N)ncnc3n2C)c(F)c1
Found: 29.3

Lookup: Check C=C(C)C(=O)Nc1ccc(-c2c(-c3ccc(N=S4(=O)CC(C)(C)C4)c(F)c3)c3c(N)ncnc3n2C)c(F)c1 too.
Found: 2.2

Lookup: # iterate: [2H]c1cc(-c2c(-c3ccc(NC(=O)C(=C)C)cc3F)n(C)c3ncnc(N)c23)cc([2H])c1N=S1(=O)CCCC1
Found: 1.8

###

Biological target: Ba/F3-TEL-FGFR1 (Homo sapiens, UniProt P11362+P41212)
Sequence (P11362 478-767 limits assumed, one chain of several): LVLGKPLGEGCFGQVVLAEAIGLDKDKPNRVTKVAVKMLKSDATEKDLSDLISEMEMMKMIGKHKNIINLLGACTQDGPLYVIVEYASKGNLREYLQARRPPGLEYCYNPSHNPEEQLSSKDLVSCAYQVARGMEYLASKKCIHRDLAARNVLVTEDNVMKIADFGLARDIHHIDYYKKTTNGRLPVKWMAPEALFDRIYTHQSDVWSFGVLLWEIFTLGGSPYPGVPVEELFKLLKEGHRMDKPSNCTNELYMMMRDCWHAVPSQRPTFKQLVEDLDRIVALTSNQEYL
Experiment: Cell viability (proliferation inhibition) of Ba/F3 cells, CellTiter Glo
Conditions: read-out: Ba/F3 cell FGFR1 (IC50 nM), 72 h
Friendly reminder: IC50 below 600 nM is 1.0, at or above is 0.0.

Worked examples follow.
Lookup: # strict comparison: is reported IC50 < 600 nM? input = C=C(C)C(=O)Nc1ccc(-c2c(-c3ccc(N=S4(=O)CCCCC4)cc3)c3c(N)ncnc3n2C)cc1 [Compound 4]
Found: 0.0

Lookup: Then what about the compound [2H]C([2H])([2H])n1c(-c2ccc(NC(=O)C(=C)C)cc2F)c(-c2ccc(N=S3(=O)CCCC3)c(F)c2)c2c(N)ncnc21 [Compound 94] ?
Found: 0.0

Lookup: What do you get for C=C(C)C(=O)Nc1ccc(-c2c(-c3ccc(N=S4(=O)CCC4)c(F)c3)c3c(N)ncnc3n2C)c(C)c1 [Compound 70] ?
Found: 0.0

Lookup: And then [2H]C([2H])([2H])n1c(-c2ccc(NC(=O)C(=C)C)cc2Cl)c(-c2ccc(N=S3(=O)CCC3)c(Cl)c2)c2c(N)ncnc21 [Compound 95] , what is it?
Found: 1.0

Lookup: Now consider C=C(C)C(=O)Nc1ccc(-c2c(-c3ccc(N=S4(=O)CCCC4)cc3)c3c(N)ncnc3n2C)cc1 [Compound 31] .
Found: 0.0

Others:
Lookup: Does C=C(C)C(=O)Nc1ccc(-c2c(-c3ccc(N=S(=O)(N(C)C)C(F)(F)F)c(F)c3)c3c(N)ncnc3n2C)cc1 (centres unmarked) [Compound 48] have IC50 strictly under 600 nM?
Found: 0.0

Lookup: Also C=C(C)C(=O)Nc1ccc(-c2c(-c3ccc(N=S4(=O)CCC4)c(Cl)c3)c3c(N)ncnc3n2C)c(F)c1 [Compound 104] ?
Found: 0.0

Lookup: // next record [2H]C([2H])([2H])n1c(-c2ccc(NC(=O)C(=C)C)cc2F)c(-c2ccc(N=S3(=O)CCC3)c(F)c2)c2c(N)ncnc21 [Compound 97]
Found: 1.0

###

// values below are reported IC50
Target: Ba/F3-TEL-FGFR2 (Homo sapiens, UniProt P21802+P41212)
Test: Cell viability (proliferation inhibition) of Ba/F3 cells, CellTiter Glo
Settings: read-out: Ba/F3 cell FGFR2 (IC50 nM), 72 h
State just the number; it will be interpreted in nM.

Lookup: Find the recorded IC50 belonging to C=C(C)C(=O)Nc1ccc(-c2c(-c3ccc(N=S4(=O)CCCC4)cc3)c3c(N)ncnc3n2C)cc1 and report it.
Found: 8.3

Lookup: Another molecule to look at: C=C(C)C(=O)Nc1ccc(-c2c(-c3ccc(N=S(=O)(N4CCC4)C(F)(F)F)cc3)c3c(N)ncnc3n2C)cc1 (stereo not shown)
Found: 19.1

Lookup: Again, but for C=C(C)C(=O)Nc1ccc(-c2c(-c3ccc(N=S4(=O)CCCC4)c(F)c3)c3c(N)ncnc3n2C)c(C#N)c1 [Compound 25]
Found: 38.7

Lookup: Try the molecule C=C(C)C(=O)Nc1ccc(-c2c(-c3ccc(N=S(=O)(CC)CC)cc3)c3c(N)ncnc3n2C)c(Cl)c1
Found: 0.6

Lookup: Same lookup for [2H]C([2H])([2H])n1c(-c2ccc(NC(=O)C(=C)C)cc2F)c(-c2ccc(N=S3(=O)CCCC3)c(Cl)c2)c2c(N)ncnc21 , please.
Found: 0.8

Lookup: How about C=C(C)C(=O)Nc1ccc(-c2c(-c3ccc(N=S4(=O)CCCCC4)c(F)c3)c3c(N)ncnc3n2C)cc1F ?
Found: 32

Lookup: Consider next the molecule C=C(C)C(=O)Nc1cc(-c2c(-c3ccc(N=S4(=O)CCCCC4)c(F)c3)c3c(N)ncnc3n2C)ccc1F in the same way.
Found: 247

###

Target: CYP1A2 (Homo sapiens, UniProt P05177)
Sequence (P05177 1-516): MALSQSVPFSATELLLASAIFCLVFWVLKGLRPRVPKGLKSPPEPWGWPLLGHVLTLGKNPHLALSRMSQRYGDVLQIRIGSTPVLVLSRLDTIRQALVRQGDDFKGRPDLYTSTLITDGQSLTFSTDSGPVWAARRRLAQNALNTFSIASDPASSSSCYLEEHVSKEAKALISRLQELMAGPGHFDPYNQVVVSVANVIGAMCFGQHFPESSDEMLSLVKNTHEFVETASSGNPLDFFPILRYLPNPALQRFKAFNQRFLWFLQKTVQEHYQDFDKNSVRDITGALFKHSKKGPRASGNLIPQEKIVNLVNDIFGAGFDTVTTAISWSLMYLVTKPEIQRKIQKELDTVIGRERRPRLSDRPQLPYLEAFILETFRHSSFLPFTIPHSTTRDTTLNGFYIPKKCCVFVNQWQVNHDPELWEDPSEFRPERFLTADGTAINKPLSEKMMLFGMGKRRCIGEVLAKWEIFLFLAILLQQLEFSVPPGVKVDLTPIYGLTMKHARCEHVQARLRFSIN
# reported IC50; entries follow

Reference set, count: 2
Lookup: // query IC50 value for entry C=C(C)C(=O)Nc1ccc(-c2c(-c3ccc(N=S4(=O)CCCC4)cc3)c3c(N)ncnc3n2C)c(F)c1
Found: > 10 µM

Lookup: And then [2H]C([2H])([2H])n1c(-c2ccc(NC(=O)C(=C)C)cc2F)c(-c2ccc(N=S3(=O)CCCC3)cc2)c2c(N)ncnc21 , what is it?
Found: > 10 µM

Let us examine a further case.
Lookup: Which IC50 is reported for this compound? C=C(C)C(=O)Nc1ccc(-c2c(-c3ccc(N=S(=O)(CC)CC)cc3)c3c(N)ncnc3n2C)c(F)c1
Found: > 10 µM

###

The entries below come with measured IC50 values attached.
Molecular target: Ba/F3-TEL-FGFR3 (Homo sapiens, UniProt P22607+P41212)
Sequence (P22607 472-761 limits assumed, one chain of several): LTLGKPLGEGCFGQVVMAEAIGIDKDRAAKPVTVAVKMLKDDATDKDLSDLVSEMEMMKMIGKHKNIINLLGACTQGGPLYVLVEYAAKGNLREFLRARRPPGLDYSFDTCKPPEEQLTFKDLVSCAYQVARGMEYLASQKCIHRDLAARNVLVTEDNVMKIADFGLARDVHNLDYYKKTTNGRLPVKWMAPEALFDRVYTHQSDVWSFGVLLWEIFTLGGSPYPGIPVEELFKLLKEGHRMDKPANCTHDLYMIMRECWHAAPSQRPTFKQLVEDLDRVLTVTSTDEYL
Assay: Cell viability (proliferation inhibition) of Ba/F3 cells, CellTiter Glo
Details: read-out: Ba/F3 cell FGFR3 (IC50 nM), 72 h
Give the value in nM but do not write nM after it.

Would you please look over these solved cases?
Lookup: Item under review: C=C(C)C(=O)Nc1ccc(-c2c(-c3ccc(N=S(=O)(CC)CC)cc3)c3c(N)ncnc3n2C)c(F)c1 . Reported IC50?
Found: 442

Lookup: What about this molecule? C=C(C)C(=O)Nc1ccc(-c2c(-c3ccc(N=S4(=O)CCCC4)c(F)c3)c3c(N)ncnc3n2C)cc1
Found: 1290

Lookup: Same thing, different molecule: C=C(C)C(=O)Nc1ccc(-c2c(-c3ccc(N=S4(=O)CCCC4)c(F)c3)c3c(N)ncnc3n2C)c(C#N)c1
Found: 110

More entries:
Lookup: Requested field: IC50. Item: [2H]C([2H])([2H])n1c(-c2cc(C)c(NC(=O)C(=C)C)cc2Cl)c(-c2ccc(N=S3(=O)CCCC3)c(F)c2)c2c(N)ncnc21
Found: 174

Lookup: How about C=C(C)C(=O)Nc1ccc(-c2c(-c3ccc(N=S4(=O)CCCC4)c(Cl)c3)c3c(N)ncnc3n2C)c(F)c1 ?
Found: 216
